target or test system: hTRPA1 (Homo sapiens)
Sequence (O75762 whole entry): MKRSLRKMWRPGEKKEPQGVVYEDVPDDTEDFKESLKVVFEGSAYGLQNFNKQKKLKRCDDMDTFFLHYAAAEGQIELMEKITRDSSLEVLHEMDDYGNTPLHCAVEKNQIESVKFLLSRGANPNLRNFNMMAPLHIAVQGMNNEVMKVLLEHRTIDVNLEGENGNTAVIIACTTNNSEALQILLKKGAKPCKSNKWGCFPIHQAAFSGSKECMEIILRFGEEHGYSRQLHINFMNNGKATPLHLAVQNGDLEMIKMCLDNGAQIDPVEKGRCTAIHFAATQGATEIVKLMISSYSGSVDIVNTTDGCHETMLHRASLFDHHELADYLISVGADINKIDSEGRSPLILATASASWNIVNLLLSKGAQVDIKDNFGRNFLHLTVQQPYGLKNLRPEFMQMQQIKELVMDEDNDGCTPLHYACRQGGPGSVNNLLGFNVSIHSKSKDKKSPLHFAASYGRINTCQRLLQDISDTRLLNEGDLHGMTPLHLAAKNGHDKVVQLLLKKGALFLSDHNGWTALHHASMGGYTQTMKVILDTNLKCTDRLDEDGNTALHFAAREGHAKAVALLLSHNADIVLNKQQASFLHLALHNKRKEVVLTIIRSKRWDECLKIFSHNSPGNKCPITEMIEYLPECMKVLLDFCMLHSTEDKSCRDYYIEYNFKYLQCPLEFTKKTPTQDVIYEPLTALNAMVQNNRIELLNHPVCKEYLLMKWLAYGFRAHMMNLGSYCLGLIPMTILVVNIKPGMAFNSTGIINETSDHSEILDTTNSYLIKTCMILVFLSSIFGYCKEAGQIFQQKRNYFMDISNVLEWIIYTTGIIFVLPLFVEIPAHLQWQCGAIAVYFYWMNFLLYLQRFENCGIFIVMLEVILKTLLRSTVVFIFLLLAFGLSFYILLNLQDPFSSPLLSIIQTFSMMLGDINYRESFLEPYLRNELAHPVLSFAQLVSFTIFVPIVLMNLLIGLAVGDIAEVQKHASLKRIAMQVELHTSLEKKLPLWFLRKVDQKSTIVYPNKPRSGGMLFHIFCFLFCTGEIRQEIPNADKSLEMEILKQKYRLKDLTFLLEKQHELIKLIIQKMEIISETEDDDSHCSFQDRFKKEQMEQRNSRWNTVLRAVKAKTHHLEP
procedure details: IC50 determination, dose response calcium flux (FLIPR) assay, ChanTest hTRPA1-CHO stably transfected cell line
condition info: CHO-K1 Tet-On hTRPA1 cells, 30' preincubation, agonist cinnamaldehyde final 100 uM
Structures can show the parent of a compound that is named as a salt.
quantity measured: pIC50
pIC50 here: minus log base 10 of the concentration, concentration in moles per litre.

These recorded examples may help you get a feel for the data.
- compound: "O=C(Nc1ccc(Cl)cc1)O[C@@H](CN1CCCC(c2ccc(F)cc2)C1)C(F)(F)F (some centres unmarked) [Example 42, hydrochloride]"
  pIC50: 6.35
- compound: "O=C(Nc1ccc(Cl)cc1)O[C@@H](CN1CCC(Cc2ccccc2)C1)C(F)(F)F (some centres unmarked) [Example 64]"
  pIC50: 5.30
- compound: "COc1cc([C@H]2CCCN(C[C@H](OC(=O)Nc3ccc(Cl)cc3)C(F)(F)F)C2)ccc1F [Example 32, hydrochloride]"
  pIC50: 6.95

Query :: GET /values?readout=pIC50&system=hTRPA1 (Homo sapiens)&item= COCCOc1cc(C2CCCN(C[C@H](OC(=O)Nc3ccc(Cl)cc3)C(F)(F)F)C2)ccc1F (some centres unmarked) [Example 34]
Result :: 6.47

Query :: hTRPA1 (Homo sapiens) / pIC50 / O=C(Nc1ccc(Cl)cc1)O[C@@H](CN1CCC[C@H](c2cccc(C(F)(F)F)c2)C1)C(F)(F)F (single isomer, unassigned) [Example 30, hydrochloride] : value?
Result :: 7.98

Query :: Lab note: need pIC50 for N#Cc1ccc(OC2CCCN(C[C@H](OC(=O)Nc3ccc(Cl)cc3)C(F)(F)F)C2)cc1 (some centres unmarked) [Example 46, hydrochloride] on hTRPA1 (Homo sapiens), anyone have it?
Result :: 6.39

Query :: Record O=C(Nc1ccc(Cl)c(Cl)c1)O[C@@H](CN1CCCC(c2cccc(C(F)(F)F)c2)C1)C(F)(F)F (some centres unmarked) [Example 66] : what is its pIC50 with hTRPA1 (Homo sapiens)?
Result :: 6.70

Query :: What pIC50 appears in the records for this compound with hTRPA1 (Homo sapiens)? COc1ccc(C2CCCN(C[C@H](OC(=O)Nc3ccc(Cl)cc3)C(F)(F)F)C2)cc1 (some centres unmarked) [Example 38]
Result :: 6.21

Query :: API: value(readout=pIC50, system=hTRPA1 (Homo sapiens)) for record O=C(Nc1ccc(Cl)cc1)O[C@H](CN1CCC[C@H](c2ccccc2)C1)C(F)(F)F [Example 7, hydrochloride]
Result :: 5.19

Query :: Write down the reported pIC50 of COc1cccc([C@H]2CCCN(C[C@H](OC(=O)Nc3ccc(Cl)cc3)C(F)(F)F)C2)c1 [Example 3, hydrochloride] , test system: hTRPA1 (Homo sapiens).
Result :: 6.92
